Measured logP accompanies every entry in the list below.
Keep it simple and answer with nothing but the number.

COMPOUND: CC(C)(C)NCC(O)COc1cccc2c1CCN(C=O)C2 (stereo unspecified)
logP: 1.3

COMPOUND: CNc1ccc(-c2cn3cc(SC)ccc3n2)cc1
logP: 3.9

COMPOUND: O=[N+]([O-])c1nccn1CC(O)COCF (stereo unspecified)
logP: -0.4

COMPOUND: c1ccc2c(c1)OCC(c1ncc[nH]1)O2 (stereo unspecified)
logP: 1.76

COMPOUND: S=C=NC(c1ccccc1)c1ccccc1
logP: 5.09

Switching to the query record.
Record COc1ccc(C2Cc3cc(OCc4ccccc4)ccc3N(CCN(C)C)C(=O)C2OC(C)=O)cc1 (stereo unspecified) . Reported logP: 5.4

###

Where a SMILES comes first, the peptide text is derived from it.
Measured logP accompanies every entry in the list below.
Keep it simple and answer with nothing but the number.

COMPOUND: CN(C)CCOC(=O)c1ccc(C(F)(F)F)cc1
VALUE_REPORTED: 2.88
--
COMPOUND: O=C(OC1Cc2c(O)cc(O)cc2OC1c1ccc(O)c(O)c1)c1ccc(O)c(O)c1 (configuration not stated)
VALUE_REPORTED: 2.45
--
COMPOUND: CCN(CC)C1CCc2c(OC)cccc2C1C (configuration not stated)
VALUE_REPORTED: 3.47
--
COMPOUND: Cc1ccccc1Nc1ccncc1S(=O)(=O)NC(=O)NC(C)C
VALUE_REPORTED: 3.91
--
COMPOUND: OCCCCCCCCNc1ncnc2c1ncn2C1OC(CO)C(O)C1O (configuration not stated)
VALUE_REPORTED: 1.3

Record O=c1ccc2cc3ccsc3cc2s1 . Reported logP: 2.96

Record CC(C)CC(N)C(=O)NC(CO)C(=O)NC(CC(C)C)C(=O)O (stereo not drawn) (H-Leu-Ser-Leu-OH; configuration not given here) . Reported logP: -2.35

Record CON=C(C(=O)NC1C(=O)N2C(C(C)OC(=O)OC(C)C)=CCSC12)c1csc(N)n1 (configuration not stated) . Reported logP: 1.37

Record O=c1[nH]c(=O)n(Cc2ccc(Cl)cc2Cl)cc1F . Reported logP: 1.96

Record CC(C)Nc1ncnc2c1ncn2C1OC(CO)C(O)C1O (configuration not stated) . Reported logP: 0.48

###

Where a SMILES comes first, the peptide text is derived from it.
ASSAY_READOUT: logP
Keep it simple and answer with nothing but the number.

Check out these entries, answers already filled in.
COMPOUND: Cc1nc2c3c(c(C(=O)N(C)C)cn2c1Br)CCC(c1ccccc1)O3 (centres undefined)
VALUE_REPORTED: 3.4

COMPOUND: CCC(C)C(NC(=O)C(CC(C)C)NC(=O)C(N)C(C)O)C(=O)O (stereo not drawn) (H-Thr-Leu-Ile-OH; configuration not given here)
VALUE_REPORTED: -1.66

Record COc1ccc(CCNCC(O)COc2ccc(Cc3nc(C(C)=O)c[nH]3)cc2)cc1OC (centres undefined) . Reported logP: 2.3

Record COC1CC(OC2C(O)CC(OC3CCC4(C)C(CCC5C4CC(O)C4(C)C(C6=CC(=O)OC6)CCC54O)C3)OC2C)OC(C)C1OC1CC(O)C(O)C(C)O1 (centres undefined) . Reported logP: 1.8

Record CC(NC(=O)C(NC(=O)C(N)Cc1ccccc1)C(C)C)C(=O)O (stereo not drawn) (H-Phe-Val-Ala-OH; configuration not given here) . Reported logP: -2.19
